Just for reference, patent US4060612A is where these values come from.

# ASSAY_INFO: Acute toxicity, LD50 (Litchfield-Wilcoxon method)
# Assay type: in vivo
# TEST_CONDITIONS: mouse, in vivo, ip; intraperitoneal, mice; Litchfield-Wilcoxon; read-out: LD50
Counter-ions that a name gives are not always drawn.
Overview of recorded LD50 for various molecules
# output: bare number, implied unit mg/kg

Item CNCCCOc1ccccc1Sc1ccccc1 [hydrochloride] has what recorded LD50? 135

Please turn your attention to the following entry.
Item CN(C)CCCCOc1ccccc1Sc1ccccc1 [hydrochloride] has what recorded LD50? 130
